Taken from patent US20240252677A1.

# Procedure text: Dimensions (size, PDI) of DNPs co-assembled from IAJDs and Luc-mRNA by DLS
# Assay type: physicochemical
# Measurement context: Table 12; DNPs, IAJD 4 mg/mL + Luc-mRNA 0.10 mg/mL, acetate buffer 10 mM pH 4.0
Classify: true when Size (d, nm) is strictly less than 100 nm; false when Size (d, nm) is not.

Consider the worked cases shown below.
CCCCCCCCCCCCOc1cc(COC(=O)CCCN2CCCCC2)cc(OCCCCCCCCCCCC)c1    false
CCCCCCCCCCCCCCCCOc1cc(COC(=O)CCCN2CCN(C)CC2)cc(OCCCCCCCCCCC)c1    true
CCCCCCCCCCCCOc1ccc(COC(=O)CCCN2CCN(C)CC2)cc1OCCCCCCCCCCCC    false
CCCCCCCCCCCCOc1cc(COC(=O)CCN2CCN(C)CC2)cc(OCCCCCCCCCCCC)c1    false
CCCCC(CC)COC(=O)CCCCOc1cc(COC(=O)CCCN2CCN(CCO)CC2)cc(OCCCCC(=O)OCC(CC)CCCC)c1 (stereo not shown)    false
CCCCC(CC)COc1cc(COC(=O)CCCN2CCN(C)CC2)cc(OCC(CC)CCCC)c1 (stereo not shown)    true
CCCCCCCCCCCCCCCCCCOc1cc(COC(=O)CCCN2CCN(CCO)CC2)cc(OCCCCCCCCCCCCCCCCCC)c1    false
CCCCCCCCCCOc1cc(COC(=O)CCCN2CCN(CCO)CC2)cc(OCCCCCCCCCC)c1    false

input: Problem: For the compound `CCCCCCCCCCCCCCCCOc1cc(COC(=O)CCCN2CCN(C)CC2)cc(OCCCCCCCCCCCC)c1` , is Size (d, nm) under 100 nm?
output: false

input: Problem: For the compound `CCCCCCCCCCCCOCC(COCCCCCCCCCCCC)(COCCCCCCCCCCCC)COC(=O)CCCN1CCN(C)CC1` , is Size (d, nm) under 100 nm?
output: false

input: Problem: For the compound CCCCC(CC)COc1cc(COC(=O)CCCN2CCN(C)CC2)cc(OCC(CC)CCCC)c1OCC(CC)CCCC (stereo not shown) , is Size (d, nm) under 100 nm?
output: false

input: Problem: For the compound `CCCCCCCCCCCCCCCCCCOc1cc(COC(=O)CCCN2CCN(C)CC2)cc(OCCCCCCCCCCCCCCCCCC)c1` , is Size (d, nm) under 100 nm?
output: false

input: Problem: For the compound `CCCCCCCCCCCCOCC(COCCCCCCCCCCCC)(COCCCCCCCCCCCC)COC(=O)CCCN1CCN(CCO)CC1` , is Size (d, nm) under 100 nm?
output: false

input: Problem: For the compound `CCCCCCCCCCCCCCCCOc1cc(COC(=O)CCCN2CCN(C)CC2)cc(OCCCCCCCCCCCCCCCC)c1` , is Size (d, nm) under 100 nm?
output: false

input: Problem: For the compound `CCCCCCCCCCCCCCOc1cc(COC(=O)CCCN2CCN(C)CC2)cc(OCCCCCCCCCCC)c1` , is Size (d, nm) under 100 nm?
output: true

input: Problem: For the compound CCCCC(CC)COc1cc(COC(=O)CCCN2CCN(CCO)CC2)cc(OCC(CC)CCCC)c1 (stereo not shown) , is Size (d, nm) under 100 nm?
output: false
